# Tested on: U-251
# TEST: NCI tumour cell line growth inhibition, 48 h
Active and inactive are the calls of the source. Cut-off read from the data, not from the text of the source: active = GI50 up to about 1.1 µM and inactive = higher.
Allowed answers: active, inactive

Use the examples below as a reference point.
COMPOUND: O=S(=O)(N/C(=N\O)Nc1ccc(Cl)cc1)c1cc(S(=O)(=O)c2ccccc2)cs1
ASSIGNED_CATEGORY: inactive
//
COMPOUND: COc1ccc(N2C(=O)C3c4[nH]c5ccccc5c4C4CCC(C(C)(C)C)CC4C3C2=O)c(C)c1 (stereo not given)
ASSIGNED_CATEGORY: inactive
//
COMPOUND: CN(C)c1ccc(/C=C2\N=C(c3ccccc3)N(c3nc4ccc(Sc5ccccc5)cc4[nH]3)C2=O)cc1
ASSIGNED_CATEGORY: inactive
//
COMPOUND: CCOC(=O)[C@H]1Nc2ccc(Cl)cc2[C@H]2OCC[C@@H]12
ASSIGNED_CATEGORY: inactive
//
COMPOUND: O=C(/C=C/c1ccc2c(c1)OCO2)Cc1nc2ncccc2[nH]c1=O
ASSIGNED_CATEGORY: inactive

Asked: In this assay, the call recorded for COc1ccc(C2Oc3cc(OC)c(O)cc3[C@@H]2C)cc1 (stereo not given in full) was what?
Given back: inactive

Asked: Next entry: CN(C)CCN1C(=O)c2ccccc2C1(O)c1ccc(Cl)cc1 (stereo not given)
Given back: inactive

Asked: Lookup Cn1c(=O)c2nc3sc4ccccc4c(=N)n3c2n(C)c1=O
Given back: inactive

Asked: Also need CC(=O)O[C@@H]1C(C2CCCCC2)C=[N+]([O-])O[C@@H]1OC1CCCC1(c1ccccc1)c1ccccc1 (stereo not given in full) , thanks.
Given back: inactive

Asked: Same thing, different compound: Nc1c2c(nc3ccccc13)-c1ccccc1NCCC2
Given back: inactive

Asked: Another compound to check: c1ccc(/C(=N\Nc2nc3ccccc3[nH]2)c2ccccn2)cc1
Given back: active

Asked: Can you check CC(C)=CCCC1(C)C=Cc2c(c(C)cc3c2[nH]c2cc(O)ccc23)O1 (stereo not given) next?
Given back: inactive

Asked: Could you do the same for COC(=O)N/N=C/c1oc(-c2cccc([N+](=O)[O-])c2)c(-c2cccc([N+](=O)[O-])c2)c1[N+](=O)[O-] , please?
Given back: inactive

Asked: Another compound to look at: Cc1ccc(S(=O)(=O)n2cc(-c3cc(C(F)(F)F)ccn3)c3cc(Br)ccc32)cc1
Given back: inactive

Asked: Try the compound O=C(Nc1cc(Cl)ccc1Cl)c1cc2cccc(Br)c2oc1=O
Given back: inactive

Asked: Same again, this time with CC1=C(C(=O)NCc2ccccc2)C(c2ccccc2[N+](=O)[O-])C(C(=O)NCc2ccccc2)=C(C)N1
Given back: inactive

Asked: And for O=C1c2ccccc2-c2c1c1ccccc1c(=O)n2-c1ccccc1 ?
Given back: inactive

Asked: Request: COc1cc(/C=C2/SC(c3ccccc3)N(c3cccc(Cl)c3)C2=O)cc(OC)c1OC (stereo not given)
Given back: inactive

Asked: Input O=c1[nH]n(Cc2ccccc2)c2ccc([N+](=O)[O-])cc12
Given back: inactive

Asked: Now try [O-][N+]1(CC[N+]2([O-])CCCCC2)CCCCC1 .
Given back: inactive

Asked: Field entry: O=[N+]([O-])c1cccc(/C=N\NS(=O)(=O)c2ccc(Cl)cc2)c1O
Given back: inactive

Asked: Same for Cc1cn(C2CC(O)C(COC(=O)c3ccccc3)O2)c(=O)[nH]c1=O (stereo not given)
Given back: inactive

Asked: Entry CNC(=O)OCc1nc(SC)n(C)c1COC(=O)NC please
Given back: inactive

Asked: Also CCC1(O)CC(OC2CC(N(C)C)C(OC3CC(O)C(OC4OC(C)C(=O)C=C4N)C(C)O3)C(C)O2)c2c(cc3c(c2O)C(=O)c2c(O)cccc2C3=O)C1C(=O)OC (stereo not given) , if possible.
Given back: active

Asked: Here is the next compound: CCNc1nc2ccccc2nc1NCC
Given back: inactive

Asked: Further, for CC1(C)[C@@H]2C[C@H]1c1cnc(-c3ccccn3)cc1C2[C@@H]1c2cc(-c3ccccn3)ncc2[C@@H]2C[C@H]1C2(C)C (stereo not given in full) ?
Given back: inactive

Where these numbers come from: ChEMBL document CHEMBL1201862
